Consider the following binders and their measured Ki readings.
Target: T1, G3BP2 NTF2 domain (human, UniProt Q9UN86 11-133)
T1 sequence (looked up): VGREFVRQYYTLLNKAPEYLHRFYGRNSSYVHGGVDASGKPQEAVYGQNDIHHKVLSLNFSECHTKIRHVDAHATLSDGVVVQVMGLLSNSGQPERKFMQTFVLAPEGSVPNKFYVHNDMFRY
Conditions: both partners purified

Please review the entries below; each comes with its answer.
QGLPLEFGASAETVRY [NSP3 peptide 958-972 (Sars-CoV)] ... 47 µM
ESLPFSFGTLSSWELE [DDIT3 peptide 4-19] ... 12 µM
PVPPIEFGVSPKDSDY [PRRC2B peptide 1780-1794] ... 19 µM
NLQFGALQFGSEPVY [UBAP2L peptide 515-528] ... 32 µM

Next, consider the following binder.
Lookup: Which measured Ki value corresponds to PSKLPTFGAPEQLVDY [TRIM25 peptide 400-414] ?
Found: 17 µM
